This section presents compounds with their documented pIC50 values.
# target-or-test-system: ATM (Homo sapiens (Human))
# Sequence (Q13315 whole entry): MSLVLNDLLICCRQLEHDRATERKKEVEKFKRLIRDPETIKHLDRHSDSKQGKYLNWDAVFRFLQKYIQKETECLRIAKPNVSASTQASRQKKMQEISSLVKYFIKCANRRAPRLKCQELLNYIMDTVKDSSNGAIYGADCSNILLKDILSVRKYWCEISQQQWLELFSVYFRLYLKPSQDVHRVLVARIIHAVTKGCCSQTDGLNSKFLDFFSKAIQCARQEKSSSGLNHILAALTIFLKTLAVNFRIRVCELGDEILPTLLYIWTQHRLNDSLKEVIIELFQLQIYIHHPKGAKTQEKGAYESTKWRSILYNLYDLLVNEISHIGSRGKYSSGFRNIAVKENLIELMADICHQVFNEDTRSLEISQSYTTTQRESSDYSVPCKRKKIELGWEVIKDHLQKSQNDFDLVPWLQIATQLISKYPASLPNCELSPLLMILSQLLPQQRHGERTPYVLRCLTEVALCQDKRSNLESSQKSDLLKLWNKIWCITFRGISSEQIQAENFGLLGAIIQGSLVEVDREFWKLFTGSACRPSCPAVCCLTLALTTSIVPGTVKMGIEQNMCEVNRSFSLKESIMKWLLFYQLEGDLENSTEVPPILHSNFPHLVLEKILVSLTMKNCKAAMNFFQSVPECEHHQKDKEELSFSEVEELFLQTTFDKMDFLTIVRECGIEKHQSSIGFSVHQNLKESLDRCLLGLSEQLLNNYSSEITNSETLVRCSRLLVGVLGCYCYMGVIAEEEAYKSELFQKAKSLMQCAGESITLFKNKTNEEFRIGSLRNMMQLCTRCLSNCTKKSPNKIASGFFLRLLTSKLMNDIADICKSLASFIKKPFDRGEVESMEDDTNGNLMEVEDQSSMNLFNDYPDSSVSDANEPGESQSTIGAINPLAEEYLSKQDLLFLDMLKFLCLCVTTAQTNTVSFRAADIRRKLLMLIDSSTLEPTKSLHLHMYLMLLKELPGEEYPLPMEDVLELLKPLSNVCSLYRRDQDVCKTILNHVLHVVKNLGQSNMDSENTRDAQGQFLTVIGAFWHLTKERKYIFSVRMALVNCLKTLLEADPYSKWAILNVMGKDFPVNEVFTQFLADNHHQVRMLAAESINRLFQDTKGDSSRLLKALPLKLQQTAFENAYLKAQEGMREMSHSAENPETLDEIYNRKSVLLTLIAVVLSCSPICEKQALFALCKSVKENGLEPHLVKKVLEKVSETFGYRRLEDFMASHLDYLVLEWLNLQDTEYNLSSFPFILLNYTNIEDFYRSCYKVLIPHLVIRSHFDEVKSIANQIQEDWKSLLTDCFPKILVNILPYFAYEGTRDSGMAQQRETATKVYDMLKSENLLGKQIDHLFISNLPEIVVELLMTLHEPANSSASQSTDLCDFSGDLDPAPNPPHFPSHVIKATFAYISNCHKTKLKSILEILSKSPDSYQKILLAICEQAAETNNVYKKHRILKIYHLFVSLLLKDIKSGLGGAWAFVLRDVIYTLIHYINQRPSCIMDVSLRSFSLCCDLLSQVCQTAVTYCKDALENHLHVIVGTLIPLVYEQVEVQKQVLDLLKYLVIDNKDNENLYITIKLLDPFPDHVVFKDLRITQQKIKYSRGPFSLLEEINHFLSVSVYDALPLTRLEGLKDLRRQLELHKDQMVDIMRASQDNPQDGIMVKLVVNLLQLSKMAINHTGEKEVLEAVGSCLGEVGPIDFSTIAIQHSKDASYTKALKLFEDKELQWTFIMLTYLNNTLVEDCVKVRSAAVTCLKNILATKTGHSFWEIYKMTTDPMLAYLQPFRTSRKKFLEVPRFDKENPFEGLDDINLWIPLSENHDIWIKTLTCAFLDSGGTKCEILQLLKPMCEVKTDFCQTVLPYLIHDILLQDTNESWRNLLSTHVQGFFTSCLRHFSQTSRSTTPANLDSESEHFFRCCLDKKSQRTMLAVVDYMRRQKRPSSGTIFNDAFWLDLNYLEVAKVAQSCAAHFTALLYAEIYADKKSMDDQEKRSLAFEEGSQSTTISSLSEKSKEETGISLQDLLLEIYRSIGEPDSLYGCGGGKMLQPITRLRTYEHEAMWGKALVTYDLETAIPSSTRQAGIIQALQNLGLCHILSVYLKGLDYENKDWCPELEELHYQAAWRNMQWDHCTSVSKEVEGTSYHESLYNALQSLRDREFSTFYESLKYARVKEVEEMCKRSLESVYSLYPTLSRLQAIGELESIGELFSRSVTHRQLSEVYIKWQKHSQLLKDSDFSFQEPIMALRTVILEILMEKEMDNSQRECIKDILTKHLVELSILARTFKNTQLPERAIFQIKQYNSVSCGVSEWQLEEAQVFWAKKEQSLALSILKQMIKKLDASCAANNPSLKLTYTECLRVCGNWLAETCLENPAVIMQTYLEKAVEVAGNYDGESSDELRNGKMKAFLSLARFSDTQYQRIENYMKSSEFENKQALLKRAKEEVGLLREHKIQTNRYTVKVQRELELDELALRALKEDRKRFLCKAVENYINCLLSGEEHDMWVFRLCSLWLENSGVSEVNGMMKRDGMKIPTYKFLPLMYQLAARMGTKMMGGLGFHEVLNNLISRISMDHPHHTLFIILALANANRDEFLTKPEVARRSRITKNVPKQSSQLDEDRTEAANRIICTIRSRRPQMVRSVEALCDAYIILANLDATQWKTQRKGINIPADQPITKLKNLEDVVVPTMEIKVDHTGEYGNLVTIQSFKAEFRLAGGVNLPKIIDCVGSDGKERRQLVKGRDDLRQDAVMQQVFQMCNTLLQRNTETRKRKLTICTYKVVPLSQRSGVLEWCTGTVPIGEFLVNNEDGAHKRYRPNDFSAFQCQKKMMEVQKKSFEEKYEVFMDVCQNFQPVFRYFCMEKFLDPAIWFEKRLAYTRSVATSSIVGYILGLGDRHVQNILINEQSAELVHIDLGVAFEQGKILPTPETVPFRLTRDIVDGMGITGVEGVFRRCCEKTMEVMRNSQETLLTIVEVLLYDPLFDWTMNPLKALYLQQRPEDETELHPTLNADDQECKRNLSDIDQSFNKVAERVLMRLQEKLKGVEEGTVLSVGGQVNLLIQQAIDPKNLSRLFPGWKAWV
# protocol-summary: ATM in Cell Western Assay (pKAP1 in etoposide-treated MCF-7 cells)
# Format: cell-based
# recorded-conditions: MCF-7 cells, etoposide 100 μM, 1 hr, pKAP1 readout
# Protocol: Assay of Compounds ATM and DNA-PK Inhibition ATM in Cell Western Assay: Next day, add corresponding concentration of compounds using pin tool (Echo 550), the final top concentration is 1 μM, 3-fold series dilution, total 10 doses. Then add etoposide (Sigma, #E1383) to a final concentration of 100 μM. Incubate at 37° C. for 1 hr. Fix cells by adding 25 μL of fixing solution (8% paraformaldehyde) for 20 minutes at ambient temperature. […]
pIC50: −log10 of the molar value.

Answer briefly: pIC50 recorded on ATM (Homo sapiens (Human)) for CN1CCN(S(=O)(=O)Nc2cc(-c3ccc4ncc5c(c4c3)C3(CCC3)C(=O)N5C)cnc2OCCCN2CCCCC2)CC1 9.00 to 9.30

Give pIC50 for this entry on ATM (Homo sapiens (Human)): CN(C)CCCOc1ncc(-c2ccc3ncc4c(c3c2)C2(COC2)C(=O)N4C)cc1NS(=O)(=O)c1ccccc1 7.00 to 9.00

Determine reported pIC50 for CNCCOc1ncc(-c2ccc3ncc4c(c3c2)C2(CCC2)C(=O)N4C)cc1NS(C)(=O)=O ; test system: ATM (Homo sapiens (Human)). 7.00 to 9.00

Under ATM (Homo sapiens (Human)): report pIC50 of CN1CCN(c2ncc(-c3ccc4ncc5c(c4c3)C3(CCC3)C(=O)N5C)cc2NS(=O)(=O)c2ccccc2)CC1 . 7.00 to 9.00

Look up ATM (Homo sapiens (Human)) data: pIC50 of CN1C(=O)C2(CCC2)c2c1cnc1ccc(-c3cnc(N4CCC(N5CCCCC5)CC4)c(NS(=O)(=O)N(C)C)c3)cc21 , then report it. 7.00 to 9.00

Where do these numbers come from? They come from patent US12187742B2.
